assay: Cytotoxicity against human HuH7 cells after 2 days by MTS assay
Format: cell-based, Huh-7
Kindly supply the reported CC50 at 48 h values for the records listed here.
Reply numerically in µM, unit not repeated.

IN: For the compound CCn1c(-c2ccc(NS(=O)(=O)CC)cc2)c(C#N)c2ccc(C(F)(F)F)cc21 , what CC50 at 48 h is on record?
OUT: 18

IN: For the compound N#Cc1c(-c2ccc(NS(=O)(=O)C3CC3)cc2)n(CC2CC2)c2cc(OC(F)F)ccc12 , what CC50 at 48 h is on record?
OUT: 25

IN: For the compound CC(C)n1c(-c2ccc(NS(=O)(=O)C3CC3)cc2)c(C#N)c2ccc(OC(F)F)cc21 , what CC50 at 48 h is on record?
OUT: 13

IN: For the compound CCn1c(-c2ccc(NS(=O)(=O)CC)cc2)c(C#N)c2ccc(OC(F)F)cc21 , what CC50 at 48 h is on record?
OUT: 20

----------
assay: Cytotoxicity against human HuH7 cells after 2 days by MTS assay
Assay type: cell-based, Huh-7
Kindly supply the reported CC50 at 48 h values for the records listed here.
Reply numerically in µM, unit not repeated.

IN: For the compound CCn1c(-c2ccc(NS(=O)(=O)CC)cc2)c(C#N)c2ccc(O)cc21 , what CC50 at 48 h is on record?
OUT: 55

IN: For the compound CCn1c(-c2ccc(NS(=O)(=O)CC)cc2)c(C#N)c2cc(Cl)ccc21 , what CC50 at 48 h is on record?
OUT: 40

IN: For the compound CCS(=O)(=O)Nc1ccc(-c2c(C#N)c3ccc(OC(F)F)cc3n2C(C)C)cc1 , what CC50 at 48 h is on record?
OUT: 12

IN: For the compound CCn1c(-c2ccc(NS(=O)(=O)CC)cc2)c(C#N)c2ccc(CO)cc21 , what CC50 at 48 h is on record?
OUT: 60

IN: For the compound CCS(=O)(=O)Nc1ccc(-c2c(C#N)c3ccc(OC(F)F)cc3n2CC2CC2)cc1 , what CC50 at 48 h is on record?
OUT: 13

IN: For the compound CCn1c(-c2ccc(NS(=O)(=O)CC)cc2)c(C#N)c2c(Cl)cccc21 , what CC50 at 48 h is on record?
OUT: 55

IN: For the compound CCn1c(-c2ccc(NS(=O)(=O)CC)cc2)c(C#N)c2ccc(CN3CCOCC3)cc21 , what CC50 at 48 h is on record?
OUT: 35

IN: For the compound CCn1c(-c2ccc(NS(=O)(=O)CC)cc2)c(C#N)c2ccc(OCCF)cc21 , what CC50 at 48 h is on record?
OUT: 39

IN: For the compound CCn1c(-c2ccc(O)cc2)c(C#N)c2ccc(OC)cc21 , what CC50 at 48 h is on record?
OUT: 50

----------
System: Hepatitis C virus
assay: Antiviral activity against Hepatitis C virus genotype 1b infected in human HuH7 cells assessed as inhibition of viral replication after 2 days by luciferase reporter gene assay
Format: functional, organism-based, Hepacivirus hominis
testConditions: Huh-7, 48 h
Kindly supply the reported pEC50 values for the records listed here.
As a rule, pEC50 stands for the negative log10 of the concentration, concentration in M.

IN: For the compound CCn1c(-c2ccc(NS(=O)(=O)CC)cc2)c(C#N)c2cc(F)ccc21 , what pEC50 is on record?
OUT: 6.23

IN: For the compound CCn1c(-c2ccc(NS(=O)(=O)CC)cc2)c(C#N)c2ccc(OCCF)cc21 , what pEC50 is on record?
OUT: 6.23

IN: For the compound N#Cc1c(-c2ccc(NS(=O)(=O)C3CC3)cc2)n(C2CCC2)c2cc(OC(F)F)ccc12 , what pEC50 is on record?
OUT: 6.72

IN: For the compound CCn1c(-c2ccc(S(C)(=O)=O)cc2)c(C#N)c2ccc(OC)cc21 , what pEC50 is on record?
OUT: 5.59

IN: For the compound CCn1c(-c2ccc(N3CCCS3(=O)=O)cc2)c(C#N)c2ccc(OC)cc21 , what pEC50 is on record?
OUT: 5.70

IN: For the compound CCn1c(-c2ccc(NS(=O)(=O)CC)cc2)c(C#N)c2ccc(C(N)=O)cc21 , what pEC50 is on record?
OUT: 5.05

IN: For the compound CCn1c(-c2ccc(NS(=O)(=O)C(C)C)cc2)c(C#N)c2ccc(OC)cc21 , what pEC50 is on record?
OUT: 6.19

IN: For the compound CCS(=O)(=O)Nc1ccc(-c2c(C#N)c3ccc(OC(F)F)cc3n2C(C)C)cc1 , what pEC50 is on record?
OUT: 6.70

IN: For the compound CCOc1ccc(-c2c(C#N)c3ccc(OC)cc3n2CC)cc1 , what pEC50 is on record?
OUT: 5.52

IN: For the compound CCn1c(-c2ccc(N)cc2)c(C#N)c2ccc(OC)cc21 , what pEC50 is on record?
OUT: 5.11

----------
Kindly supply the reported log10 EC50 values for the records listed here.
System: Hepatitis C virus
assay: Antiviral activity against Hepatitis C virus genotype 1b infected in human HuH7 cells assessed as inhibition of viral replication after 2 days by luciferase reporter gene assay
Type: functional, organism-based, Hepacivirus hominis
testConditions: Huh-7, 48 h
Values are log10 of EC50 in µM.

IN: For the compound N#Cc1c(-c2ccc(NS(=O)(=O)C3CC3)cc2)n(CC2CC2)c2cc(OC(F)F)ccc12 , what log10 EC50 is on record?
OUT: -0.77

IN: For the compound CCn1c(-c2ccc(C(N)=O)cc2)c(C#N)c2ccc(OC)cc21 , what log10 EC50 is on record?
OUT: 0.89

IN: For the compound CCS(=O)(=O)Nc1ccc(-c2c(C#N)c3ccc(OC(F)F)cc3n2CC2CC2)cc1 , what log10 EC50 is on record?
OUT: -0.52

IN: For the compound CCn1c(-c2ccc([S+](C)[O-])cc2)c(C#N)c2ccc(OC)cc21 (stereo not given) , what log10 EC50 is on record?
OUT: 0.60

IN: For the compound CCn1c(-c2ccc(NS(=O)(=O)CC)cc2)c(C#N)c2ccccc21 , what log10 EC50 is on record?
OUT: 0.95

----------
Test system: Hepatitis C virus
assay: Antiviral activity against Hepatitis C virus genotype 1b infected in human HuH7 cells assessed as inhibition of viral replication after 2 days by luciferase reporter gene assay
Assay type: functional, organism-based, Hepacivirus hominis
testConditions: Huh-7, 48 h
endpointLabel: log10 of EC50 (log10 of the value in nM)
Values are log10 of EC50 in nM.

IN: For the compound CCn1c(-c2ccc(N3CCNS3(=O)=O)cc2)c(C#N)c2ccc(OC)cc21 , what log10 of EC50 is on record?
OUT: 2.95

IN: For the compound CCn1c(-c2ccc(NS(=O)(=O)C(C)C)cc2)c(C#N)c2cc(OC)ccc21 , what log10 of EC50 is on record?
OUT: 3.87

IN: For the compound CCOc1ccc2c(C#N)c(-c3ccc(NS(=O)(=O)CC)cc3)n(CC)c2c1 , what log10 of EC50 is on record?
OUT: 2.72

IN: For the compound CCn1c(-c2ccc(NS(=O)(=O)CC)cc2)c(C#N)c2ccc(OC(F)F)cc21 , what log10 of EC50 is on record?
OUT: 2.46

IN: For the compound CC(C)n1c(-c2ccc(NS(=O)(=O)C3CC3)cc2)c(C#N)c2ccc(OC(F)F)cc21 , what log10 of EC50 is on record?
OUT: 1.88

IN: For the compound CCn1c(-c2ccc(NS(=O)(=O)CC)cc2)c(C#N)c2ccc(O)cc21 , what log10 of EC50 is on record?
OUT: 3.30

IN: For the compound CCn1c(-c2ccc(NS(=O)(=O)CC)cc2)c(C#N)c2cc(Cl)ccc21 , what log10 of EC50 is on record?
OUT: 3.88

IN: For the compound COc1ccc(-n2cc([N+](=O)[O-])c3ccc(OC)cc32)cc1 , what log10 of EC50 is on record?
OUT: 4.70
